Would you mind telling me the reported inhibition at 10 µM of each entry?
Biological target: PLA2-treated LDL (Homo sapiens, UniProt P04114)
Construct: from tissue; host or cells: pooled normolipemic human plasma
Sequence (P04114 28-4563): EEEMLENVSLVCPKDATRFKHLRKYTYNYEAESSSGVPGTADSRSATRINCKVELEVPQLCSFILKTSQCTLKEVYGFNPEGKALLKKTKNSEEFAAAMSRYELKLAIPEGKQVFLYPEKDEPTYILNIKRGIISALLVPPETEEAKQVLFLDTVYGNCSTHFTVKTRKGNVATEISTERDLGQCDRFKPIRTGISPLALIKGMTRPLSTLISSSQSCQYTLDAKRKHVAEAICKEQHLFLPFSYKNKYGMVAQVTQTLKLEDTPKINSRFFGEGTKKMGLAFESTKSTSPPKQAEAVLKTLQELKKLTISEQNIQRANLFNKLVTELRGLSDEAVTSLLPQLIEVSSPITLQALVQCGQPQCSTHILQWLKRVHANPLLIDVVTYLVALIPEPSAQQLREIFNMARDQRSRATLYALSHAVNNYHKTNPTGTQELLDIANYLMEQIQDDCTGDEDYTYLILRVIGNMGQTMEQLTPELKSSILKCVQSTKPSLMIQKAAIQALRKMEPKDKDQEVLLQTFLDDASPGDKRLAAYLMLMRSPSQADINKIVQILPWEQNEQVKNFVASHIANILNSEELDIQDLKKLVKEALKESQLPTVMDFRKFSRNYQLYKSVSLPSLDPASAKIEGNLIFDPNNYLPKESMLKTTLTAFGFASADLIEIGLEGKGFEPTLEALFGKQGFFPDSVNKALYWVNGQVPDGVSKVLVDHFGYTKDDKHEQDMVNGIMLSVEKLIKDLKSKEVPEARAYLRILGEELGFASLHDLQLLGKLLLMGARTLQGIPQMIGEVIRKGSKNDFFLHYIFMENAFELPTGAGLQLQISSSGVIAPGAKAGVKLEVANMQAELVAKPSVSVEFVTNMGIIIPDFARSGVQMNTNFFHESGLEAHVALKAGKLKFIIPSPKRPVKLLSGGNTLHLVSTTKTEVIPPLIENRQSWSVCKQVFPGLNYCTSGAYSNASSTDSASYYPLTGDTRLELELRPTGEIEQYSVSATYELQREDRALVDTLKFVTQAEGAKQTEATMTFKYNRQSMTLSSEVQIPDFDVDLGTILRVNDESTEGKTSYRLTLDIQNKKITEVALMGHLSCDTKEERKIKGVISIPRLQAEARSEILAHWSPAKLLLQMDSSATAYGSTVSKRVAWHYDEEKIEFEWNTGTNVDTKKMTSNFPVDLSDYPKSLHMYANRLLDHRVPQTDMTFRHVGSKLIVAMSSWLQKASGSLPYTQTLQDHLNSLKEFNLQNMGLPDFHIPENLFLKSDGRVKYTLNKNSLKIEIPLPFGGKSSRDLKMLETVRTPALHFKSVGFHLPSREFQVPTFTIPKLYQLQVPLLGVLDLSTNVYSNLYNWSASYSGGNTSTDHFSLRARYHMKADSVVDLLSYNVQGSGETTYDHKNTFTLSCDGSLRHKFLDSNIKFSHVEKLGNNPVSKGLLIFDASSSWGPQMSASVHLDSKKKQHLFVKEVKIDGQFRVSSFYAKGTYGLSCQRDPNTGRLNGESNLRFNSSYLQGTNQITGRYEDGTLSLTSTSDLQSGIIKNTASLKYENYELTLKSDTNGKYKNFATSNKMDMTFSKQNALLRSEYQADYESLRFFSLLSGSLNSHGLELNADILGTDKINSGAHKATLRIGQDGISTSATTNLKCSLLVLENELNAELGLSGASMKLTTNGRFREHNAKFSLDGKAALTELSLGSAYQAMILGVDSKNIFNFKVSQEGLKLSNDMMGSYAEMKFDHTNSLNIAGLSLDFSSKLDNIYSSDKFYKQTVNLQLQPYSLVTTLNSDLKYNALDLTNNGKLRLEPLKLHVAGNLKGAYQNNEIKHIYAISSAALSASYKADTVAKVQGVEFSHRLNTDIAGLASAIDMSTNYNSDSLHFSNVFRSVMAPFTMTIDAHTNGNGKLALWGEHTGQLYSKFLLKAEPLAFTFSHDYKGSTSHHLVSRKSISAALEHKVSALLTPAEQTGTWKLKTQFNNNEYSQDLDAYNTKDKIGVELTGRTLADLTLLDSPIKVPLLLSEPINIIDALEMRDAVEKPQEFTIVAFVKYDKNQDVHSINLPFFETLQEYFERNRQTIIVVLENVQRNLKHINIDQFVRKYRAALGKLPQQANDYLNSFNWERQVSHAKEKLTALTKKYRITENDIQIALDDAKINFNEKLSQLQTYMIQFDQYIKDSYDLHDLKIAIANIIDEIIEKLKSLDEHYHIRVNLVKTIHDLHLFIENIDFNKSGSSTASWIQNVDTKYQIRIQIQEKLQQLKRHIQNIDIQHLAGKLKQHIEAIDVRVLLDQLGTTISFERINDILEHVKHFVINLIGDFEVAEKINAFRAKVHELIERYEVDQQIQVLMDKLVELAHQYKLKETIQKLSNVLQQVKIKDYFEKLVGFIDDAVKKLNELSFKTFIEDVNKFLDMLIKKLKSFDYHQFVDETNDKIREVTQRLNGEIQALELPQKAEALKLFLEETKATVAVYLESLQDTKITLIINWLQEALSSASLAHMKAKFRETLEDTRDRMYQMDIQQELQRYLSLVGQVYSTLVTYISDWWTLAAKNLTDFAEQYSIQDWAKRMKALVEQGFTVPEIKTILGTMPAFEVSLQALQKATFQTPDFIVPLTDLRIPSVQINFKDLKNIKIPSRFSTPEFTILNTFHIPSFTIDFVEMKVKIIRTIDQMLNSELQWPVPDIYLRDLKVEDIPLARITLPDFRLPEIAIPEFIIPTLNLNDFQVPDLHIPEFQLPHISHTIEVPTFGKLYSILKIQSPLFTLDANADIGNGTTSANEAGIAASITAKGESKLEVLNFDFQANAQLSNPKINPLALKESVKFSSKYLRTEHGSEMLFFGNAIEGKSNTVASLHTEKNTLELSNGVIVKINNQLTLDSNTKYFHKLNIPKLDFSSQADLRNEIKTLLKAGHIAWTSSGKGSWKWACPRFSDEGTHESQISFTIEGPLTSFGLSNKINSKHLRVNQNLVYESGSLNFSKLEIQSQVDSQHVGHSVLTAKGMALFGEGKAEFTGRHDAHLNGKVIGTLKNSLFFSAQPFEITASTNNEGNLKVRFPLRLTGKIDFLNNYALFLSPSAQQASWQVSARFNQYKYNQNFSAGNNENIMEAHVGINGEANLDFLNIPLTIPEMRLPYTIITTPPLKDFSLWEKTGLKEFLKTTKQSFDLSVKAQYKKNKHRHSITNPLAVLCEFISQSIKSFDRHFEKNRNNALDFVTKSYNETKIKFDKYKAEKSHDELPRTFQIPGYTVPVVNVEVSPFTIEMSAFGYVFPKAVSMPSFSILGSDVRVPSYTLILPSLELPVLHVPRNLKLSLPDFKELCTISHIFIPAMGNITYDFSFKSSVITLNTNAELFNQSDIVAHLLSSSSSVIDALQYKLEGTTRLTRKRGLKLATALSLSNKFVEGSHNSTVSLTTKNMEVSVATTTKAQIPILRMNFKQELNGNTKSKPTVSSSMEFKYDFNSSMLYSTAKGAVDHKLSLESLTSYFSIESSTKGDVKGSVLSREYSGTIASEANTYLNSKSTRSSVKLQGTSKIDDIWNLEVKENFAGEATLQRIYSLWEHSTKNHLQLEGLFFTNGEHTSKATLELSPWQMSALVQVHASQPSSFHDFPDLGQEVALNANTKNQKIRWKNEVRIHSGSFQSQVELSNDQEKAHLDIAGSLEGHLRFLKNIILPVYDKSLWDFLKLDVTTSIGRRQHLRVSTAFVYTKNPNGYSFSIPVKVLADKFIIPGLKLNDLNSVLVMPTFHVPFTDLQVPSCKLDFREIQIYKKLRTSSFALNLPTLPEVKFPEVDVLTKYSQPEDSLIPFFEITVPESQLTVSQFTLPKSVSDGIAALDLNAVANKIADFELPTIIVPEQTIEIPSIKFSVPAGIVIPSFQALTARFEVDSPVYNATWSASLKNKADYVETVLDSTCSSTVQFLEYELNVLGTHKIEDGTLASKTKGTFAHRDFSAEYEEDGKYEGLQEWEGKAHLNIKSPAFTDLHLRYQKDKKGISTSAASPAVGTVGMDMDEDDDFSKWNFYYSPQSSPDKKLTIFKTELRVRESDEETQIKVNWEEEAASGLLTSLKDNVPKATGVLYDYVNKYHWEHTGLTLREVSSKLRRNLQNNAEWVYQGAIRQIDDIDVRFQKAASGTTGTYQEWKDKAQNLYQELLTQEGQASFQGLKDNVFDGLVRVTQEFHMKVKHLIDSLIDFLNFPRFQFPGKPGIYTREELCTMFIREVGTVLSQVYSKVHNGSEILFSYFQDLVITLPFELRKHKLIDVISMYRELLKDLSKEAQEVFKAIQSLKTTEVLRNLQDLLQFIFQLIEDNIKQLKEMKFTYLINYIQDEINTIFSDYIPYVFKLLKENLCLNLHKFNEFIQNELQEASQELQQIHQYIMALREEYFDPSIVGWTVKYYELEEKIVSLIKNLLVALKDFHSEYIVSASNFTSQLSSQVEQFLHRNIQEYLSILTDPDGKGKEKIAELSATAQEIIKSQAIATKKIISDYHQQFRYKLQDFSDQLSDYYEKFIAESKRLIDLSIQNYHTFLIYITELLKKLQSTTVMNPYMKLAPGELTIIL
Assay: Anti-LDL aggregation assay, turbidimetry, aggregation induced by phospholipase A2 (PLA2)
Format: biochemical
Conditions: 18 h, read-out: Inhibition of LDL aggregation, PLA2-treated LDL
Procedure: The efficacy of the novel compounds to inhibit the aggregation of LDL has been tested in two parallel turbidimetric assays differing from each other only in the enzyme used to induce LDL aggregation, namely sphingomyelinase (SMase) and phospholipase A2 (PLA2), respectively. Human LDL (d1.019-d1.063 g/mL) were obtained from pooled normolipemic human plasma by sequential ultracentrifugation in a KBr density gradient. […] Protein concentration was determined using a colorimetric assay. […]
Where a SMILES comes first, the peptide text is derived from it. [ ]: non-standard residue; d: D form. ξ: configuration not given here. ξD = NC(CC(=O)O)C(=O)O
Give just the number in %; leave the unit off.

IN: Bench note: what inhibition at 10 µM did CC(=O)N[C@H](CO)C(=O)N[C@H](CCC(=O)O)C(=O)N[C@H](CC(=O)O)C(=O)N[C@H](CCC(N)=O)C(=O)N[C@H](CO)C(=O)N[C@H](CCC(=O)O)C(=O)N[C@H](CCC(=O)O)C(=O)N[C@H](CCC(=O)O)C(=O)N[C@H](CCC(N)=O)C(N)=O [Example 4] (Ac-[dS][dE][dD][dQ][dS][dE][dE][dE][dQ]-NH2) show?
OUT: 32.6

IN: Then this compound: CC(=O)N[C@H](CC(=O)O)C(=O)N[C@H](CC(N)=O)C(=O)N[C@H](CC(=O)O)C(=O)N[C@H](CO)C(=O)N[C@H](CCC(=O)O)C(=O)NC(CC(=O)O)C(=O)N[C@H](CC(N)=O)C(=O)N[C@H](CO)C(=O)N[C@H](CC(=O)O)C(=O)N[C@H](CCC(=O)O)C(=O)N[C@H](CCC(=O)O)C(=O)N[C@H](C)C(N)=O (stereo partly shown) [Example 13] (Ac-[dD][dN][dD][dS][dE][ξD][dN][dS][dD][dE][dE][dA]-NH2)
OUT: 95.9

IN: Then this compound: CC(=O)N[C@H](CO)C(=O)N[C@H](CCC(=O)O)C(=O)N[C@H](CC(=O)O)C(=O)N[C@H](CC(N)=O)C(=O)N[C@H](CO)C(=O)N[C@H](CC(=O)O)C(=O)N[C@H](CCC(=O)O)C(=O)N[C@H](CCC(=O)O)C(=O)N[C@H](CC(N)=O)C(N)=O [Example 2] (Ac-[dS][dE][dD][dN][dS][dD][dE][dE][dN]-NH2)
OUT: 87.7

IN: Then this compound: CC(=O)N[C@H](CO)C(=O)N[C@H](CCC(=O)O)C(=O)N[C@H](CC(=O)O)C(=O)N[C@H](CCC(N)=O)C(=O)N[C@H](C)C(=O)N[C@H](CCC(=O)O)C(=O)N[C@H](CCC(=O)O)C(=O)N[C@H](CCC(=O)O)C(=O)N[C@H](C)C(N)=O [Example 5] (Ac-[dS][dE][dD][dQ][dA][dE][dE][dE][dA]-NH2)
OUT: 20.7

----------
Would you mind telling me the reported inhibition at 10 µM of each entry?
Molecular target: PLA2-treated LDL (Homo sapiens, UniProt P04114)
Construct: from tissue; host or cells: pooled normolipemic human plasma
Experiment: Anti-LDL aggregation assay, turbidimetry, aggregation induced by phospholipase A2 (PLA2)
Format: biochemical
Conditions: 18 h, read-out: Inhibition of LDL aggregation, PLA2-treated LDL
Where a SMILES comes first, the peptide text is derived from it. [ ]: non-standard residue; d: D form.
Give just the number in %; leave the unit off.

IN: Enter reported inhibition at 10 µM observed with PLA2-treated LDL (Homo sapiens, UniProt P04114) for CC(=O)N[C@H](CC(=O)O)C(=O)N[C@H](CO)C(=O)N[C@H](CCC(=O)O)C(=O)N[C@H](CC(=O)O)C(=O)N[C@H](CC(N)=O)C(=O)N[C@H](C)C(=O)N[C@H](CC(=O)O)C(=O)N[C@H](CCC(=O)O)C(=O)N[C@H](CCC(=O)O)C(=O)N[C@H](C)C(N)=O [Example 16] (Ac-[dD][dS][dE][dD][dN][dA][dD][dE][dE][dA]-NH2)
OUT: 61.9

IN: Then this compound: CC(=O)N[C@H](CO)C(=O)N[C@H](CCC(=O)O)C(=O)N[C@H](CC(=O)O)C(=O)N[C@H](CC(N)=O)C(=O)N[C@H](CCCCN)C(=O)N[C@H](CC(=O)O)C(=O)N[C@H](CCC(=O)O)C(=O)N[C@H](CCC(=O)O)C(=O)N[C@H](CC(N)=O)C(N)=O [Example 9] (Ac-[dS][dE][dD][dN][dK][dD][dE][dE][dN]-NH2)
OUT: 36.4

IN: Then this compound: CC(=O)N[C@H](CC(=O)O)C(=O)N[C@H](CO)C(=O)N[C@H](CCC(=O)O)C(=O)N[C@H](CC(=O)O)C(=O)N[C@H](CC(N)=O)C(=O)N[C@H](CCCCN)C(=O)N[C@H](CC(=O)O)C(=O)N[C@H](CCC(=O)O)C(=O)N[C@H](CCC(=O)O)C(=O)N[C@H](CC(N)=O)C(N)=O [Example 18] (Ac-[dD][dS][dE][dD][dN][dK][dD][dE][dE][dN]-NH2)
OUT: 55.1

IN: Then this compound: CC(=O)NCC(=O)N[C@H](CC(=O)O)C(=O)N[C@H](CC(N)=O)C(=O)N[C@H](CC(=O)O)C(=O)N[C@H](CO)C(=O)N[C@H](CCC(=O)O)C(=O)N[C@H](CC(=O)O)C(=O)N[C@H](CC(N)=O)C(=O)N[C@H](CO)C(=O)N[C@H](CC(=O)O)C(=O)N[C@H](CCC(=O)O)C(=O)N[C@H](CCC(=O)O)C(=O)N[C@H](CC(N)=O)C(N)=O [Example 1] (Ac-G[dD][dN][dD][dS][dE][dD][dN][dS][dD][dE][dE][dN]-NH2)
OUT: 77.5

IN: Then this compound: CC(=O)N[C@H](CC(=O)O)C(=O)N[C@H](CO)C(=O)N[C@H](CCC(=O)O)C(=O)N[C@H](CC(=O)O)C(=O)N[C@H](CC(N)=O)C(=O)N[C@H](CO)C(=O)N[C@H](CC(=O)O)C(=O)N[C@H](CCC(=O)O)C(=O)N[C@H](CCC(=O)O)C(=O)N[C@H](C)C(N)=O [Example 15] (Ac-[dD][dS][dE][dD][dN][dS][dD][dE][dE][dA]-NH2)
OUT: 95.9

IN: Then this compound: CC(=O)N[C@H](CC(=O)O)C(=O)N[C@H](C)C(=O)N[C@H](CCC(=O)O)C(=O)N[C@H](CC(=O)O)C(=O)N[C@H](CC(N)=O)C(=O)N[C@H](C)C(=O)N[C@H](CC(=O)O)C(=O)N[C@H](CCC(=O)O)C(=O)N[C@H](CCC(=O)O)C(=O)N[C@H](C)C(N)=O [Example 17] (Ac-[dD][dA][dE][dD][dN][dA][dD][dE][dE][dA]-NH2)
OUT: 66.1

----------
Biological target: SMase-treated LDL (Homo sapiens, UniProt P04114)
Construct: from tissue; host or cells: pooled normolipemic human plasma
Sequence (P04114 28-4563): as above
Experiment: Anti-LDL aggregation assay, turbidimetry, aggregation induced by sphingomyelinase (SMase)
Assay type: biochemical
Settings: peptide 10 μM (compound/ApoB-100 4.7/1), human LDL 1.44 mg/mL, 40 U/L Bacillus cereus SMase, 18 hours, 37° C., absorbance at 405 nm, Equation I
Where a SMILES comes first, the peptide text is derived from it. [ ]: non-standard residue; d: D form.
measuredMetric: inhibition at 10 µM (%)
Give just the number in %; leave the unit off.

IN: Bench note: what inhibition at 10 µM did CC(=O)N[C@H](CC(=O)O)C(=O)N[C@H](CO)C(=O)N[C@H](CCC(=O)O)C(=O)N[C@H](CC(=O)O)C(=O)N[C@H](CC(N)=O)C(=O)N[C@H](CCCCN)C(=O)N[C@H](CC(=O)O)C(=O)N[C@H](CCC(=O)O)C(=O)N[C@H](CCC(=O)O)C(=O)N[C@H](CC(N)=O)C(N)=O [Example 18] (Ac-[dD][dS][dE][dD][dN][dK][dD][dE][dE][dN]-NH2) show?
OUT: 85.1

IN: Then this molecule: CC(=O)N[C@H](CO)C(=O)N[C@H](CCC(=O)O)C(=O)N[C@H](CC(=O)O)C(=O)N[C@H](CCC(N)=O)C(=O)N[C@H](CO)C(=O)N[C@H](CCC(=O)O)C(=O)N[C@H](CCC(=O)O)C(=O)N[C@H](CCC(=O)O)C(=O)N[C@H](CCC(N)=O)C(N)=O [Example 4] (Ac-[dS][dE][dD][dQ][dS][dE][dE][dE][dQ]-NH2)
OUT: 91.5

IN: Then this molecule: CC(=O)N[C@H](CC(N)=O)C(=O)N[C@H](CC(=O)O)C(=O)N[C@H](CO)C(=O)N[C@H](CCC(=O)O)C(=O)N[C@H](CC(=O)O)C(=O)N[C@H](CC(N)=O)C(=O)N[C@H](CO)C(=O)N[C@H](CC(=O)O)C(=O)N[C@H](CCC(=O)O)C(=O)N[C@H](CCC(=O)O)C(=O)N[C@H](CC(N)=O)C(N)=O [Example 11] (Ac-[dN][dD][dS][dE][dD][dN][dS][dD][dE][dE][dN]-NH2)
OUT: 94.8

Values were extracted from patent US20220220155A1.
